assayed-system: beta-catenin-B-cell lymphoma 9 protein complex (Homo sapiens, UniProt P35222)
assay-overview: Inhibition of full length beta-catenin (1 to 781 residues) (unknown origin) expressed in Escherichia coli BL21 (DE3)/N-terminal biotinylated human BCL9 HD2 (350 to 375 residues) protein-protein interaction assessed as inhibition constant incubated for 1 hr by Alphascreen assay
Mark true (1) only when Ki stays strictly below 4 µM. Values equal to the cut-off are false (0).

molecule | class
CC(C)(C)C1CCC(c2cc(C(=O)N3CCC(Oc4cc(F)cc(N5CCNCC5)c4)CC3)ccc2O[C@H]2CCNC2)CC1 (mixture of isomers) | true (1)
O=C(c1cc(F)cc(N2CCNCC2)c1)N1CCN(C(=O)c2ccc(O[C@@H]3CCNC3)c(C3CCCCC3)c2)CC1 | false (0)
CC(C)(C)C1CCC(c2cc(C(=O)N3CCC(Oc4cc(N5CCNCC5)ccc4C#N)CC3)ccc2O[C@H]2CCNC2)CC1 (mixture of isomers; 36) | true (1)
CC(C)(C)C1CCC(c2cc(C(=O)N3CCC(Oc4cc(N5CCNCC5)ccc4C#N)CC3)ccc2O[C@H]2CCNC2)CC1.Cl.Cl (mixture of isomers; cis) | true (1)

Request: Dear reviewer, please state whether CC(C)(C)C1CCC(c2cc(C(=O)N3CCC(Oc4cc(N5CCNCC5)cc(C(F)(F)F)c4)CC3)ccc2O[C@H]2CCNC2)CC1 (stereo not given in full) has Ki strictly beneath 4 µM.
Result: true (1)

----------
assay-overview: Cytotoxicity against human MCF-10A cells assessed as reduction in cell growth incubated for 72 hrs by MTS assay
Type: toxicity, cell-based
test-readout: IC50 at 72 h (µM)
Numbers only here, please. The scale is µM.

Recorded IC50 at 72 h (compound CC(C)(C)C1CCC(c2cc(C(=O)N3CCC(Oc4cc(N5CCNCC5)ccc4C#N)CC3)ccc2O[C@H]2CCNC2)CC1.Cl.Cl (mixture of isomers; cis) ): 18

----------
assay-overview: Inhibition of Wnt/beta-catenin transactivation signalling in human HEK293 cells transfected with TOPFlash reporter gene incubated for 24 hrs by TOPFlash luciferase assay
Type: cell-based
details: HEK293, 24 h
test-readout: pIC50
The meaning of pIC50 here: minus log10 of the concentration in molar units.

Lab book: pIC50 of CC(C)(C)C1CCC(c2cc(C(=O)N3CCC(Oc4cc(N5CCNCC5)ccc4C#N)CC3)ccc2O[C@H]2CCNC2)CC1.Cl.Cl (mixture of isomers; cis) noted as 5.24

----------
Overview of reported IC50 across a group of molecules:
assayed-system: beta-catenin-B-cell lymphoma 9 protein complex (Homo sapiens)
assay-overview: Inhibition of full length beta-catenin (1 to 781 residues) (unknown origin) expressed in Escherichia coli BL21 (DE3)/N-terminal biotinylated human BCL9 HD2 (350 to 375 residues) protein-protein interaction incubated for 1 hr by Alphascreen assay

molecule | result
CNC(=O)c1ccc(N2CCNCC2)cc1OC1CCN(C(=O)c2ccc(O[C@H]3CCNC3)c(C3CCC(C(C)(C)C)CC3)c2)CC1 (mixture of isomers) | 47 µM
O=C(c1ccc(O[C@H]2CCNC2)c(-c2ccc3nc[nH]c3c2)c1)N1CCC(Oc2cc(F)cc(N3CCNCC3)c2)CC1 | 48 µM
O=C(c1ccc(O[C@H]2CCNC2)c(C2CCCCC2)c1)N1CCC(Oc2cc(F)cc(N3CC4(CCNCC4)C3)c2)CC1 | > 100 µM
CC(C)(C)C1CCC(c2cc(C(=O)N3CCC(Oc4cc(N5CCNCC5)ccc4C(N)=O)CC3)ccc2O[C@H]2CCNC2)CC1 (mixture of isomers) | 20 µM
O=C(c1ccc(O[C@H]2CCNC2)c(C2CCN(C(=O)C3CC3)CC2)c1)N1CCC(Oc2cc(F)cc(N3CCNCC3)c2)CC1 | 39 µM
CC(C)(C)C1CCC(c2cc(C(=O)N3CCC(Oc4ccc(F)c(N5CCNCC5)c4)CC3)ccc2O[C@H]2CCNC2)CC1 (mixture of isomers) | 6.7 µM
CC(C)(C)C1CCC(c2cc(C(=O)N3CCC(Oc4cc(N5CCNCC5)cc(C(F)(F)F)c4)CC3)ccc2O[C@H]2CCNC2)CC1 (some centres undefined) | 4.3 µM
O=C(c1ccc(O[C@@H]2CCNC2)c(C2CCCCC2)c1)N1CCC(Oc2cc(F)cc(N3CCNCC3)c2)CC1 | 64 µM
NCCC(=O)NCc1cc(F)cc(OC2CCN(C(=O)c3ccc(O[C@H]4CCNC4)c(C4CCCCC4)c3)CC2)c1 | > 100 µM
COC(=O)c1ccc(N2CCNCC2)cc1OC1CCN(C(=O)c2ccc(O[C@H]3CCNC3)c(C3CCC(C(C)(C)C)CC3)c2)CC1 (mixture of isomers) | 17 µM

Now look at this entry.
The molecule `NCCC(=O)Nc1cc(F)cc(OC2CCN(C(=O)c3ccc(O[C@H]4CCNC4)c(C4CCCCC4)c3)CC2)c1` , tested on beta-catenin-B-cell lymphoma 9 protein complex (Homo sapiens), showed IC50 of 69 µM

----------
assayed-system: beta-catenin-B-cell lymphoma 9 protein complex (Homo sapiens, UniProt P35222)
assay-overview: Inhibition of full length beta-catenin (1 to 781 residues) (unknown origin) expressed in Escherichia coli BL21 (DE3)/N-terminal biotinylated human BCL9 HD2 (350 to 375 residues) protein-protein interaction assessed as inhibition constant incubated for 1 hr by Alphascreen assay
Recorded pKi, one value per entry.
A value of pKi is the negative decimal logarithm of a concentration given in moles per litre.

pKi reading for O=C(c1ccc(O[C@H]2CCNC2)c(C2CCC(C(F)(F)F)CC2)c1)N1CCC(Oc2cc(F)cc(N3CCNCC3)c2)CC1 (mixture of isomers) : 4.89

Data point: `CN(C)Cc1cn(Cc2cc(F)cc(OC3CCN(C(=O)c4ccc(O[C@H]5CCNC5)c(C5CCCCC5)c4)CC3)c2)nn1` ; pKi = 4.14

Form: compound = `O=C(c1ccc(O[C@H]2CCNC2)c(-c2ccc3cn[nH]c3c2)c1)N1CCC(Oc2cc(F)cc(N3CCNCC3)c2)CC1` ; pKi = 5.00

----------
assay-overview: Inhibition of full length beta-catenin D145A mutant/N-terminal biotinylated human BCL9 HD2 (350 to 375 residues) protein-protein interaction in human SW480 cells incubated for 1 hr by Alphascreen assay
Assay type: cell-based
test-readout: Ki

Ki in this record for CC(C)(C)C1CCC(c2cc(C(=O)N3CCC(Oc4cc(N5CCNCC5)ccc4C#N)CC3)ccc2O[C@H]2CCNC2)CC1.Cl.Cl (mixture of isomers; cis) : 6.9 µM

----------
assayed-system: beta-catenin-B-cell lymphoma 9 protein complex (Homo sapiens, UniProt P35222)
assay-overview: Inhibition of full length beta-catenin (1 to 781 residues) (unknown origin) expressed in Escherichia coli BL21 (DE3)/N-terminal biotinylated human BCL9 HD2 (350 to 375 residues) protein-protein interaction incubated for 1 hr by Alphascreen assay
compounds and their reported IC50
Please give a number only; it is taken to be in µM.

Example entries and their recorded answers appear below.
compound | readout-number
O=C(c1ccc(O[C@H]2CCNC2)c(C2CCC(C(F)(F)F)CC2)c1)N1CCC(Oc2cc(F)cc(N3CCNCC3)c2)CC1 (mixture of isomers) | 20
O=C(c1ccc(O[C@H]2CCNC2)c(-c2ccc3[nH]ncc3c2)c1)N1CCC(Oc2cc(F)cc(N3CCNCC3)c2)CC1 | 8.8
CC(C)(C)C1CCC(c2cc(C(=O)N3CCC(Oc4cc(N5CCNCC5)ccc4C#N)CC3)ccc2O[C@H]2CCNC2)CC1.Cl.Cl (mixture of isomers; cis) | 1.2

Reported IC50 for CC(C)(C)C1CCC(c2cc(C(=O)N3CCC(Oc4cc(F)cc(N5CCNCC5)c4)CC3)ccc2O[C@H]2CCNC2)CC1 (mixture of isomers) was 3.6

Consider CC(C)(C)C1CCC(c2cc(C(=O)N3CCC(Oc4cc(Cl)cc(N5CCNCC5)c4)CC3)ccc2O[C@H]2CCNC2)CC1 (mixture of isomers) . Its measured IC50 is 4.3

----------
assayed-system: beta-catenin-B-cell lymphoma 9 protein complex (Homo sapiens)
Sequence (P35222 whole entry): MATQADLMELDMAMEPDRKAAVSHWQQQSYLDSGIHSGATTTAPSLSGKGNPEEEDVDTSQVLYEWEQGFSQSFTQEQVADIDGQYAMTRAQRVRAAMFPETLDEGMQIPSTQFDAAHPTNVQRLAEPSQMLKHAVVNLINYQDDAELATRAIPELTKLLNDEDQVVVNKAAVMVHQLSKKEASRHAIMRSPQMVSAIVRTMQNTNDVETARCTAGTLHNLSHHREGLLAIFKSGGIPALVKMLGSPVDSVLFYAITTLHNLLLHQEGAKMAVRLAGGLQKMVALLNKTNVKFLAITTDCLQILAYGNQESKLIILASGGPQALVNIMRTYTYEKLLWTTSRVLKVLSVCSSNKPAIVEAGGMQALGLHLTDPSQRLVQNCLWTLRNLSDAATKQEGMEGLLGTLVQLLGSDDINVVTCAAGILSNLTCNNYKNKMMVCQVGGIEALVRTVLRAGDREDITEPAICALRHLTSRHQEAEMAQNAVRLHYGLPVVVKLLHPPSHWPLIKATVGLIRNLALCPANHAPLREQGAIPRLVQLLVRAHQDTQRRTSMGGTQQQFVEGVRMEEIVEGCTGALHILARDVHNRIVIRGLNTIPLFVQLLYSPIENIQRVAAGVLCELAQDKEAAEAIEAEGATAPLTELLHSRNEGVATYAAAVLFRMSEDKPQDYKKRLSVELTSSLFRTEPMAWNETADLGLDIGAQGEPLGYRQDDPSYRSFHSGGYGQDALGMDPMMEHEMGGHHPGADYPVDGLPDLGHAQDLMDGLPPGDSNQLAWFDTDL
Sequence (O00512 whole entry): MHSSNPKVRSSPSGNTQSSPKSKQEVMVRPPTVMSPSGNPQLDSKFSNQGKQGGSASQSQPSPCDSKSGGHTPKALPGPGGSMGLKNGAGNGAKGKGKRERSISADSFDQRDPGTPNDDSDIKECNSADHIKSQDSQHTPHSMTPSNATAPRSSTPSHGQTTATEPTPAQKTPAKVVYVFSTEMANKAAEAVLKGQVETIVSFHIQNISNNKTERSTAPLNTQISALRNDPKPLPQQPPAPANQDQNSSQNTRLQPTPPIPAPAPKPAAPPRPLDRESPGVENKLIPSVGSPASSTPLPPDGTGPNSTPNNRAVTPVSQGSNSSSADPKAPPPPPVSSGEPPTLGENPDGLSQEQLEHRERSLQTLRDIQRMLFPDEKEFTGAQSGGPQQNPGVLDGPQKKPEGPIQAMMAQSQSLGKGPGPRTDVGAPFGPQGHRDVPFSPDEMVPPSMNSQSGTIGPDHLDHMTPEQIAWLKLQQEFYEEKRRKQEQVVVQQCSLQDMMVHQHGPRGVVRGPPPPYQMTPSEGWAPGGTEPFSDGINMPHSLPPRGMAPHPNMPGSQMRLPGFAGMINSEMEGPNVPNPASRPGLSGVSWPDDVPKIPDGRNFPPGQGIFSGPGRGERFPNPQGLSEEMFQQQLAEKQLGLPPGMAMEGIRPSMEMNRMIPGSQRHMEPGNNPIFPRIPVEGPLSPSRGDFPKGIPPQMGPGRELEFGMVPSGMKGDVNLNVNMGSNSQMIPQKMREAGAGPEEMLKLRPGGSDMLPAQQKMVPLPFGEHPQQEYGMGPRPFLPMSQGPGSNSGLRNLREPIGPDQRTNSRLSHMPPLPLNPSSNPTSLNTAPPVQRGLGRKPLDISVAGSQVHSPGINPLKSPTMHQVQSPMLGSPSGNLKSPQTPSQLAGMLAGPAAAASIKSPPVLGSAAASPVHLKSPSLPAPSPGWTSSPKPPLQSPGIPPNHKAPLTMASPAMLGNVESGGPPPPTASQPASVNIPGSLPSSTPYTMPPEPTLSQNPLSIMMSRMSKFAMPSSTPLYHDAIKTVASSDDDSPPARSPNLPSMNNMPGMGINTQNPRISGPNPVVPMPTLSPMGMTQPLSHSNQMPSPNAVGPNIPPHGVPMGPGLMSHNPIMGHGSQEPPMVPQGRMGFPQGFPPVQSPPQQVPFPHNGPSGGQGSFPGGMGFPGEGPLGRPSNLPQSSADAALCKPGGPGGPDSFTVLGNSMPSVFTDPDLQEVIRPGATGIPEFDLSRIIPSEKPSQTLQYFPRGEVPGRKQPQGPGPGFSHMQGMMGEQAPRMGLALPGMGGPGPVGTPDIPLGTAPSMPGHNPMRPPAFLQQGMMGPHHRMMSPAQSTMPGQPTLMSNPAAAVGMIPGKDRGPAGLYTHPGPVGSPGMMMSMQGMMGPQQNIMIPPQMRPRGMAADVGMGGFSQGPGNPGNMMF
assay-overview: Inhibition of full length beta-catenin (1 to 781 residues) (unknown origin) expressed in Escherichia coli BL21 (DE3)/N-terminal biotinylated human BCL9 HD2 (350 to 375 residues) protein-protein interaction assessed as inhibition constant incubated for 1 hr by Alphascreen assay
Form field: Ki (one value per entry).
Field format: number, assumed µM, no unit text.

Here is how some compounds turned out for Ki.
compound | units-label | Ki
CC(C)(C)C1CCC(c2cc(C(=O)N3CCC(Oc4ccc(F)c(N5CCNCC5)c4)CC3)ccc2O[C@H]2CCNC2)CC1 (mixture of isomers) | µM | 5.6
O=C(c1ccc(O[C@H]2CCNC2)c(C2CCN(C(=O)C3CC3)CC2)c1)N1CCC(Oc2cc(F)cc(N3CCNCC3)c2)CC1 | µM | 35

# next compound below
The compound listed as `O=C(c1ccc(O[C@H]2CCNC2)c(-c2ccc(C(F)(F)F)cc2)c1)N1CCC(Oc2cc(F)cc(N3CCNCC3)c2)CC1` has a reported Ki of 16
